Procedure text: protein stability index of a GFP-peptide fusion (yeast GPS) (PSI 1-4); higher = more stable; sorted into four equal gates, so the index is relative within each strain
Recorded conditions: ubr1∆
Entries and their measured protein stability index follow.
Readout: protein stability index

1) NGDKKVDIYSLPLISTD [YMR129W/POM152] ... 3.03
2) IPDLSIQNDIYLNDLMI [RPN12] ... 3.02
3) NGGDKELEMIGGTNEDD [YCS4] ... 3.05
4) ELPKFILSDSPLELSAP [DIS3] ... 3.04

----------
Procedure text: protein stability index of a GFP-peptide fusion (yeast GPS) (PSI 1-4); higher = more stable; sorted into four equal gates, so the index is relative within each strain
Recorded conditions: san1∆
// reported protein stability index for each item listed
Readout: protein stability index

1) NLNAFVDFSKYNTNFNL [SRP72] ... 3.09
2) APIGKHYVVLDTNVVLQ [DIS3] ... 2.04
3) NAKIIDAEVAQFLEQGL [SRP68] ... 2.12
4) SDTSKPAFTFGAQKDNE [YJL041W/NSP1] ... 3.36
5) NLLQISAAELERLDKDK [SNF5] ... 2.91
6) TAGAAANALGGLGVNRR [SSN3] ... 3.38
7) SHNVDELLEHIETIGHL [RPN5] ... 2.14
8) IELSDGSTFKVNQEFIF [YJL039C/NUP192] ... 2.78
9) TRKILEILNECHDELKA [MED4] ... 2.44
10) IFTEKIYKSIFNVVDVG [YJL039C/NUP192] ... 1.72
11) QSLDTIGGSDAAFEKRY [RPO21] ... 3.37
12) TPLKARQREMAEEQTKL [YLR018C/POM34] ... 3.31
13) SNGGNNMLPQRQSSVGS [SNF2] ... 2.19

----------
Procedure text: protein stability index of a GFP-peptide fusion (yeast GPS) (PSI 1-4); higher = more stable; sorted into four equal gates, so the index is relative within each strain
Recorded conditions: san1∆
Readout: protein stability index

1) TSSTHERKSKTYVITKN [RET1] ... 2.3
2) SDSEDSDAKEQHQSLSR [ESC2] ... 3.04
3) EIQRTMLELLNQLDGFD [RPT2] ... 2.93
4) ENGTLLVPPPRTIANQD [RPR2] ... 2.81
5) SRKRAKKMTKKAKRSNL [PRP8] ... 2.11
6) NWRGREHWKVRNFKKAN [BRN1] ... 3.52
7) FGTGQSTFGFNNSAPNN [YJL041W/NSP1] ... 3.1
8) ALGEFADWDPESMAYTA [YML031W/NDC1] ... 3.36
9) SIAAERYDYSDEVGRRS [YCG1] ... 2.65
10) NLEQINEDLEDGHYIEE [REC8] ... 2.98

----------
The reader will find reported protein stability index values listed item by item below.
Procedure text: protein stability index of a GFP-peptide fusion (yeast GPS) (PSI 1-4); higher = more stable; sorted into four equal gates, so the index is relative within each strain
Recorded conditions: san1∆
Readout: protein stability index

1. KVEKRVLGLTILRGEQI [SMB1] ... 2
2. RFNVVKVSAAAGKANKQ [RPS11A] ... 2.92
3. DWNKRFSHLAGGKIINK [BRR2] ... 3.12
4. GKVRLWKATYSNEFKCM [YGL100W/SEH1] ... 1.78
5. PGPLPDTDSKPSSQSQN [YLR018C/POM34] ... 3.17
6. AQHESFLRQKICLMTLI [RPN9] ... 1.15
7. NDIKLFVDDTNVYRVTV [PRP8] ... 2.43
8. IQKGKFTLLDFKKQMQT [SRP54] ... 1.07
9. SYEKNEDHVEDHRKRKK [LIN1] ... 3.38
10. MVLYKRKPILLPDPKPL [ITC1] ... 2.75
11. ARIIRSELLARDIFQED [RGR1] ... 2.14
12. MATPSFGNSSPQLTFTH [YML103C/NUP188] ... 2.83
13. RLRQGAAKLRTLDYAER [RPL2A] ... 1.56
14. LDVDPAKRIRVSHHATT [RPB2] ... 2.79
15. LPVMESLDSCTAAFTAM [YJR042W/NUP85] ... 2.54
16. LILGLNTSIAQFDIQSP [YML103C/NUP188] ... 2.29
17. LMRSCFYLMVSSLSFGP [YJL039C/NUP192] ... 1.76
18. LSKMENVNLDDYPDDSG [NAS6] ... 2.83
19. TSELGNDDFSEVFEFKT [BRR2] ... 2.41

----------
Procedure text: protein stability index of a GFP-peptide fusion (yeast GPS) (PSI 1-4); higher = more stable; sorted into four equal gates, so the index is relative within each strain
Recorded conditions: san1∆
// reported protein stability index for each item listed
Readout: protein stability index

1) NSIRAREVENSVSLLNS [SMC1] ... 3.09
2) NIVKQNEGIDLDTYRER [SMC2] ... 3.24
3) IDQDIHGIVFQHPFPLA [SSN2] ... 2.24
4) ALNDVYLDADVAKLANW [YML031W/NDC1] ... 3.67

----------
Procedure text: protein stability index of a GFP-peptide fusion (yeast GPS) (PSI 1-4); higher = more stable; sorted into four equal gates, so the index is relative within each strain
Recorded conditions: san1∆
# protein stability index listing for each entry below
Readout: protein stability index

1. EQNSSSAKPSQIPTVSS [SIR4] ... 2.97
2. NTFGSSSLFNNSTNSNT [YJL041W/NSP1] ... 3.12
3. DRKSIMPLKILLATKQH [CSN12] ... 1.53
4. RIMEKSVILSVISMFVL [YML031W/NDC1] ... 1.17
5. VKQEDMPFNDQGIVPDI [RET1] ... 2.91
6. LDAKNKVFVPPKSKSLP [RPO31] ... 3.37
7. RFAFSVIWELDDSANIV [DIS3] ... 3.01
8. GYDKKKNKPELYQIDYL [PRE1] ... 3.02
9. GSTTIEKKNDENSTSNS [YLR335W/NUP2] ... 3.18
10. LRLLEVTDDDRLWLKKV [POP8] ... 1.35
11. EDITEPKPDKPSGRTRG [ESC2] ... 3.07
12. EIELKKLPKVYKRSIVR [SWI1] ... 2.68
13. ARVLFDDMVEYEDGTPA [CYT1] ... 3.24
14. TQYKAGKASLFAQGKRR [RPL42A] ... 3.1
15. TNQLVLLQKMLNLLNYQ [YML103C/NUP188] ... 1.29
16. AKKSTTISKESTPDQRK [ESC2] ... 2.94
17. SENVFEGLTYKYPARRI [SSN3] ... 2.62
18. YDVLHDVFTINPHQKDQ [YML103C/NUP188] ... 2.12
19. RKLGLLGDKEDEKQSAK [MTW1] ... 2.94
20. TRLVQLREFRITHNTNI [GRR1] ... 1.04
21. CLNTQRGDSTETSSFGS [RRI1] ... 3.37
22. NKNLPFVWLSSEENIGS [SWI1] ... 1.59
23. NILTTHLSHPGTNKDMI [ECM29] ... 2.15
24. IAKPNTANAKHTSSNSR [SMB1] ... 2.72
25. IKLDIVVGQNQLIDQFE [SNF5] ... 2.11
26. SYQKLLKNYVLNELHPT [PRP8] ... 1.55
27. TKEMDEVEEDDEDDDQP [SWI3] ... 3.48
28. VNGAKNLVVSGPPQSLY [FAS1] ... 2.03
29. STEEIEYIELEYRDLYT [YMR129W/POM152] ... 2.94
30. CLTGTVAARMFHILLKL [ECM29] ... 2.74
31. EKYAAAAPAATSAASGD [RPP0] ... 1.88
32. QNLRKELLIYKKSQCKK [YIL149C/MLP2] ... 1.84
33. IRENKVTYSRVSKKVDV [BRN1] ... 2.94
34. TLPEKKQFDSIFNSNKA [SIR4] ... 2.82
35. EELKDSEINEILARNDE [SNF2] ... 2.66
36. VTIWYRAPELLLGARHY [SSN3] ... 2.07
37. GQLEDFDSELIHLKQKL [SMC3] ... 3.23
38. KDLFELERYYKEQADIY [ARP7] ... 3.46
39. KAASSTRIFQALPRKLR [POP1] ... 2.76
40. RKQRVKKKTKKELELER [SWI1] ... 3.56
41. NLQTFTHEQWSNIQRNV [SRP72] ... 3.01
42. VNETEAILYTKPGHVLQ [YGR119C/NUP57] ... 2.75
43. LNDLVESSFIEIDDTEA [BRR2] ... 2.13
44. LCAGANNPKIQTKDSVK [IRR1] ... 3.13
45. QGSMSERPPYILNSYGV [SIR2] ... 3
46. EGIKVVDIDDPDMMVDS [SNF2] ... 3.12
47. ARDEILPLRLQFNEFIQ [PGD1] ... 2.74
48. RERRAALTDFERFQVMV [RPL14A] ... 1.41
49. FDPSRIKDLKQREDKLK [SMC2] ... 2.99
